Record form. Attribute: lowest phenotypically active concentration. Fill in for each entry.
Test system: A549-ACTB-RAB5A
assay info: lowest phenotypically active concentration; higher = less potent
condition set: treatment time: 24 h

Task item: Name the recorded lowest phenotypically active concentration of the item C[C@@H]1CC[C@H]2[C@@H](C)C(=O)O[C@@H]3O[C@@]4(C)CC[C@@H]1[C@]32OO4 [Artemisinin] in your answer.
Reply: 3 µM

Task item: Return lowest phenotypically active concentration (reported value) for this compound: C[C@]12C/C(=C\O)C(=O)C[C@@H]1CC[C@@H]1[C@@H]2CC[C@@]2(C)[C@H]1CC[C@]2(C)O [oxymetholone]
Reply: 9 µM

Task item: Could you please provide reported lowest phenotypically active concentration for COC1=CC(C)=C[C@@H](C)[C@@H](O)[C@@H](C)CC(C)=CC=C[C@H](OC)[C@@H]([C@@H](C)[C@@H](O)[C@H](C)[C@@]2(O)C[C@@H](O)[C@H](C)[C@@H](C(C)C)O2)OC1=O [Bafilomycin A1] ? Thanks!
Reply: ≤ 0.3 µM

###

System: HepG2-ACTB-RAB5A
assay info: lowest phenotypically active concentration; higher = less potent
condition set: treatment time: 24 h
measurement name: lowest phenotypically active concentration

Task item: Fill in lowest phenotypically active concentration for record C[C@@]1(CO)[C@H](O)CC[C@@]2(C)[C@H]1CC[C@H]1C[C@@H]3C[C@@]12CC[C@]3(O)CO [Aphidicolin]
Reply: ≤ 0.3 µM

Task item: Kindly indicate its recorded lowest phenotypically active concentration. Item: C=C1[C@@H](O)C2C=CC[C@H](C)C(=O)[C@](C)(O)C=C[C@@H](OC(C)=O)[C@]23C(=O)N[C@H](Cc2ccccc2)[C@@H]3[C@@H]1C (stereo partly drawn) [Cytochalasin D]
Reply: ≤ 0.3 µM

Task item: Tell us which lowest phenotypically active concentration value is on record for C[C@H]1O[C@@H](O[C@H]2[C@@H](O)C[C@H](O[C@H]3[C@@H](O)C[C@H](O[C@H]4CC[C@@]5(C)[C@H](CC[C@@H]6[C@@H]5CC[C@]5(C)[C@@H](C7=CC(=O)OC7)[C@@H](O)C[C@]65O)C4)O[C@@H]3C)O[C@@H]2C)C[C@H](O)[C@@H]1O [Gitoxin]
Reply: ≤ 0.3 µM

###

Tested on: HepG2-TUBA1B-RELA
assay info: phenotypically active (imaging signature differs from DMSO and reproducible) at any of 0.3-9 uM (binary (1 = active, 0 = inactive)); higher = active
condition set: treatment time: 24 h
# valid calls are active, inactive; nothing else

Task item: Hi team, can someone confirm the assay call for CC1=C2[C@H]3OC(=O)[C@@H](C)[C@@H]3CC[C@@]2(C)C=CC1=O ?
Reply: inactive

Task item: Can you look up the reported call for COc1cc2c(cc1OC)[C@@]13CCN4CC5=CCO[C@H]6CC(=O)N2[C@H]1[C@H]6[C@H]5C[C@H]43 for me?
Reply: inactive

Task item: State the result this test recorded for O=C1NC(=O)c2c1c1c3ccccc3n3c1c1c2c2ccccc2n1C1CCC3O1 .
Reply: inactive

Task item: Per the records of this test, what outcome belongs to CC(C)(O)[C@H]1O[C@H]2CC[C@@]3(C)[C@@](O)(CC[C@H]4Cc5c([nH]c6ccccc56)[C@@]43C)C2=CC1=O ?
Reply: inactive

Task item: Outcome? CC[C@H]1CN2CCc3cc(OC)c(OC)cc3[C@@H]2C[C@@H]1C[C@H]1NCCc2cc(OC)c(OC)cc21
Reply: active

Task item: Could you check what this test reported for C=C(C)[C@H]1Cc2c(ccc3c2O[C@@H]2COc4cc(OC)c(OC)cc4[C@@H]2C3=O)O1 ?
Reply: active

Task item: Hello, I am checking results. What call was entered for C[C@]12CC[C@H]3[C@@H](CC[C@]4(O)C[C@@H](O)CC[C@]34C=O)[C@@]1(O)CC[C@@H]2C1=CC(=O)OC1 ?
Reply: active

Task item: Recorded call for CCOc1cc(C=O)ccc1O ?
Reply: inactive

Task item: Could you please tell me the result logged for CCN(C(C)=O)c1cccc(-c2ccnc3c(C#N)cnn23)c1 in this assay?
Reply: inactive

Task item: For CCn1cnc2c(Nc3cccc(Cl)c3)nc(N[C@H]3CCCC[C@H]3N)nc21 , what call appears in the results of this test?
Reply: active

Task item: So what was the verdict on Cc1sc2c(c1C)C(c1ccc(Cl)cc1)=N[C@@H](CC(N)=O)c1nnc(C)n1-2 in this test?
Reply: active
